sequences and their reported apparent Kd
tested on: MS2 coat protein; assay: apparent Kd, MS2 coat protein; higher = weaker binding; RNA-MaP array; FMN 200 µM where present; settings: designed as: ON switch for flavin mononucleotide; no ligand
Endpoint: apparent Kd

[[record]]
seq_string = "GUCGGAAACGACAAAGUAGCAUAGGAGGAUAUUCAUUAAAACAUGAGGAUCACCCAUGUAAAUUGGGAGAAGGCCUAUGCUACA"
result = "17.8 nM"

[[record]]
seq_string = "UAGAAACAUGAGGAUCACCCAUGUGGGUUAAACACAGGAUAUCACGCCAAAAGAAAAGCGUGAGAAGGGUGACCGA"
result = "86.4 nM"

[[record]]
seq_string = "UGGAUGUAGGAGAAGGAGGACUUCAUGAGGAUCACCCAUGUGUUAGGACUUAGGAUAUUUGACGACAUGAGGAUCACCCAUGUG"
result = "63.6 nM"

[[record]]
seq_string = "UUGGACGUCGUAGGAUAUGUAGGAUAUUCAUACAUGAGGAUCACCCAUGUUGACAUGGAAGAAGGACAGAAGGACGAUGUCCAU"
result = "8.63 nM"

[[record]]
seq_string = "CUCAAACAUGAGGAUCACCCAUGUGUUGUCAUGGGAGGAUAUCUAAGUUCGUUGUAUUCGGGAGAAGGCCUAUGUC"
result = "258 nM"

[[record]]
seq_string = "GUAGCAAUCGGAGGAUAUUCAUACCGGAAACGGACAUGAGGAUCACCCAUGUGGCGAAAGCCUUGGGAGAAGGCCGAUUGCUAC"
result = "614 nM"

[[record]]
seq_string = "UAUAAAUUAAAAGGAUAUUCAUACCGGAAACGGACAUGAGGAUCACCCAUGUGGCGAAAGCCUUGGGAGAAGGUAUUAAAUAAU"
result = "268 nM"

[[record]]
seq_string = "UGUUACUAGUAAGGAUAUACUUGCGAUAAGCUUGUAGAAGGUACAGUCUUUUGUAUAACACGUUUACAUGAGGAUCACCCAUGU"
result = "6.94 nM"

[[record]]
seq_string = "AGUUAAUAUCGAGGAUAUCCUCAUCUACAUGAGGAUCACCCAUGUAAGCAUGGAGAAGGCGAUAUUAACAGCAUGUUACAUGCA"
result = "112 nM"

[[record]]
seq_string = "GGUAGAAACAUUAACAUGAGGAUCACCCAUGUCAAAAGAAAUGAGGAUAUCGUAUACAAUGUAUAUGAGAAGGCAUGGUCUACC"
result = "7.78 nM"

[[record]]
seq_string = "GGAGCACGCACAGGAUAUCCGGCGGCGCUCGUCGGAGAAGGGUGACAUGAGGAUCACCCAUGUACGUGCAACCCAGUUUGAGAG"
result = "122 nM"

[[record]]
seq_string = "GCGAUUAAGUAGAAGGUACAAUAUAUAUCAUUGUAAGGAUAUACUUACAUGAGGAUCACCCAUGUUAAAGGAUAUAAUAAUCGC"
result = "9.08 nM"

[[record]]
seq_string = "UUCUUACAUGAGGAUCACCCAUGUGUUGUCGUGGGAGGAUAUCCUUGUUCGGUGGCGUUGGGAGAAGGCCUAUGUU"
result = "39.3 nM"

[[record]]
seq_string = "CGGCGUUGUCGAGAGGAUAUGCGGUGAUGGACAUGAGGAUCACCCAUGUUAGCGAUAGCAUUACGGUAGAAGGCUCUACAGCUGC"
result = "65 nM"

[[record]]
seq_string = "AGUUAAUAUCGAGGAUAUCCUCAUAAACAUGAGGAUCACCCAUGUUAACAUGGAGAAGGCGAUAUUAACAGCAUGUUACAUGCA"
result = "268 nM"

[[record]]
seq_string = "GGGUACAUCGGAGGAUAUCAUGGAAAUACAUGAGGAUCACCCAUGUCGAUGGAGACAUCGGAGAUUGAGAAGGCCGAUGUACCG"
result = "27.3 nM"

[[record]]
seq_string = "GUAGCUAUUAUUAUACAUGAGGAUCACCCAUGUUACAUGUGUAAGGAUAUUGAUGUUUUUAUUAUCAAGAAGGUACUAUGCUAC"
result = "12.3 nM"

[[record]]
seq_string = "CUAGUUGUCGCAGGAUAUGCCCGCUGGUUGGAGGCAGAAGGGUGACACCAAAUAUUAUACAUGAGGAUCACCCAUGUCGCCAAC"
result = "17.9 nM"

[[record]]
seq_string = "AAUAAACUCACAGGAUAUAGCAGAGGUCGCGUGUACUUACAGGCGACUAUGCUAGAAGGGUGACCACAUGAGGAUCACCCAUGU"
result = "746 nM"

[[record]]
seq_string = "GUGCUGCAGCUGUGCACGAGACAUGAGGAUCACCCAUGUGACAGAAGGGACUUGUUAAAGGUAGGUCAGGAUAUGUCUUAAAAG"
result = "107 nM"

[[record]]
seq_string = "GCCAUCGUAUGAGGAUAUGACACCGAAACGGUGUCAGAAGGCAUGUCGAUAGACAUGAGGAUCACCCAUGUAUUAACGAUGGCA"
result = "740 nM"

[[record]]
seq_string = "GGAGCUCACAUGAACAUGAGGAUCACCCAUGUAACUAGACAUGAGGAUAUGGAUCCUAAUUGGAUCCAGAAGGCAUGGAGCUCC"
result = "161 nM"

[[record]]
seq_string = "UUAAUUAUACAAGGAUAUCUAUUGUAGUUUCGACUUACAUGAGGAUCACCCAUGUUAAUAUGUUUAGAGAAGGUGUAUUUUCUG"
result = "51 nM"

[[record]]
seq_string = "CGUAGGAUCCAGAAGGCAUGAACAUGAGGAUCACCCAUGUUAAAAUACAUGAGGAUAUGGAUCCUACGAAAAGUGCGAAAGCAC"
result = "5.75 nM"

[[record]]
seq_string = "GGGUACAUCGGAGGAUAUCAUGUACAUACAUGAGGAUCACCCAUGUCGAUGGAGACAUCGGAGAUUGAGAAGGCCGAUGUACCG"
result = "230 nM"

[[record]]
seq_string = "CUUUAUCACUAUACAUGAGGAUCACCCAUGUUAUCAUCAUGAGAGGAUAUCGUAUUUGGAUUUUUCGAGAAGGCUCUAUUGUAU"
result = "152 nM"

[[record]]
seq_string = "CUAGCAUACCGAGGAUAUUCAUAUAAUAAAUAAACAUGAGGAUCACCCAUGUGGCGAAAGCCUAGGGAGAAGGCGGAAUGCUAA"
result = "185 nM"

[[record]]
seq_string = "CGUCGCUGUCGAGAGGAUAUGCGGUGGUGGACAUGAGGAUCACCCAUGUUAGCGAUAGCAUCACGGUAGAAGGCUCUUACGACUG"
result = "21.4 nM"


* * *

system: MS2 coat protein; assay: apparent Kd, MS2 coat protein; higher = weaker binding; RNA-MaP array; FMN 200 µM where present; conditions: ligand present: flavin mononucleotide; designed as: OFF switch for flavin mononucleotide
Endpoint: apparent Kd (nM)

[[record]]
seq_string = "GUCAGCUCGUGAGGAUAUACACCACUGCUUCGGCAGUGUAUUAAGAUCACAUGAGGAUCACCCAUGUAGAAGGCACGAGCUGAU"
quantitative_result = 255

[[record]]
seq_string = "GUCAGCUCGUGAGGAUAUACAACACUGCUUCGGCAGUGUAUUAAAAUCACAUGAGGAUCACCCAUGUAGAAGGCACGAGCUGAU"
quantitative_result = 7.7

[[record]]
seq_string = "GUCCUCUCUGAGGAUAUUAUCCGGUCCGAUUGAUAAGAAGGCAGUACAUGAGGAUCACCCAUGUGGGUCGUCUG"
quantitative_result = 111

[[record]]
seq_string = "GUCCUCCGUGCCCUUAACGCACAUGAGGAUCACCCAUGUAGGAGAAGGGCCCAACAAAUCAAAGGGCAGGAUAUCCAAAUCAUG"
quantitative_result = 18.9

[[record]]
seq_string = "UUAAUUAAUUAAUUGCAGAAUUACAUGAGGAUCACCCAUGUAUAGGAUAUCGUCAGGAAUACUGACGAGAAGGAUACAUACUGC"
quantitative_result = 26.6

[[record]]
seq_string = "UUGUUACAUGAGGAUCACCCAUGUGAGGAUAUGGCCCGCCCGGCGUGAGCUGGUUUUGUCAGAAGGCGCGUGGG"
quantitative_result = 159

[[record]]
seq_string = "AGUGUUGGAGGAUAUACAUGAGGAUCACCCAUGUACAUCACACAGUAUAUCAAACCAUGUAGAAGGCCAAUACA"
quantitative_result = 36.4

[[record]]
seq_string = "UCGCUGCGAGGAUAUACAUGAGGAUCACCCAUGUACGGGUCCGGGUCUUCGUCUAUUGGUAGAAGGCGCAGUGA"
quantitative_result = 277

[[record]]
seq_string = "AAUAUGUUGCAGAAGGUUAUUUUUAUAACGAUCCAUUUGACAUGAGGAUCACCCAUGUAAUUGAUGAAGGAUAUGCAAUAUAUU"
quantitative_result = 7.18

[[record]]
seq_string = "UGUCGGAGCAGAGGAUAUUACAUGAGGAUCACCCAUGUAUGAACCAAUAGUUGGAAACAGCAAUGUAAGAAGGCUGCUCCGACA"
quantitative_result = 94.6

[[record]]
seq_string = "AGUGGUGGAGGAUAUACAUGAGGAUCACCCAUGUAAAUCACACAUGUGGUCAAAGCAUGUAGAAGGCCACUACA"
quantitative_result = 109

[[record]]
seq_string = "UCUGCUCGAGGAUAUACAUGAGGAUCACCCAUGUAUCCCUGUAGCAUGGCCUCAGGAUGUAGAAGGCGACGCUA"
quantitative_result = 16.8

[[record]]
seq_string = "UCGUGAAGGACAGGAUAUGGACAUGAGGAUCACCCAUGUACAUGGGAAUAUAUACUGCAUUUAUACUAGAAGGGUUACAUAAAU"
quantitative_result = 11.2

[[record]]
seq_string = "GUCAGCUCGUGAGGAUAUACAACACUGCUUCGGCAGUGUAUUAAGAUCACAUGAGGAUCACCCAUGUAGAAGGCGCGAGCUGAU"
quantitative_result = 243

[[record]]
seq_string = "UGUAUGUAGGCAGGAUAUACAUGAAUAUAUAUGAUGUAGUAUGAUGUAACAUGAGGAUCACCCAUGUAGAAGGGCCAGUGUAUG"
quantitative_result = 129

[[record]]
seq_string = "UAGAAAGAUUAAUAUGAUUACAUGAGGAUCACCCAUGUAUAUAAGGAUAUCGACGUCAAUGACGUCGAGAAGGUAUAUACAUAA"
quantitative_result = 198

[[record]]
seq_string = "GGAUAGGACAGAGGAUAUACGUGCUAGAGAUACUAGCUACAAAUCCUUACAUGAGGAUCACCCAUGUAGAAGGCUGUCCUAUCG"
quantitative_result = 38.3

[[record]]
seq_string = "UUGUUAUGUGUAGGAUAUGCAUAUUAUUAUUAUGCAGAAGGACAUGAGGAUCACCCAUGUGUAUUGUUAUUAUAUAUUAUAUAU"
quantitative_result = 30.5

[[record]]
seq_string = "GCCAGGCAUGUAGGAUAUCCAUUGCGUCGCGUUGGAGAAGGGCAACACACAUGAGGAUCACCCAUGUGGUCACCCAUGUAGUGU"
quantitative_result = 524

[[record]]
seq_string = "UGUGCGUAUGUGAGGAUAUGCUGGUCCUUGGAUCAGCAGAAGGCACAUGAGGAUCACCCAUGUGGUGUCGUACC"
quantitative_result = 48

[[record]]
seq_string = "GCCUAGCUAGGAUAUACCCAGGGUUUGUUCUCUAACGACACACAUGAGGAUCACCCAUGUAGAAGGAGCCGGGA"
quantitative_result = 41.4

[[record]]
seq_string = "GGAUAGGACAGAGGAUAUACAUGCUAGAGAUACUAGCAAAAUUUCCUCACAUGAGGAUCACCCAUGUAGAAGGCUGUCCUAUCG"
quantitative_result = 673

[[record]]
seq_string = "UUCGGCGCAGGAUAUGCGGUUCUGUGUUGAAUCGGCGCGGGACAUGAGGAUCACCCAUGUAGAAGGGUGUUGGG"
quantitative_result = 287

[[record]]
seq_string = "CCCUCGUAGUAGAAGGGCGGCCGAAAUCUGCACGCAGGAUAUACAUGAGGAUCACCCAUGUACUGAGCUGAAGAGCACUUGGAA"
quantitative_result = 14.5

[[record]]
seq_string = "GUGAGGUCAGGAUAUGCAUGGCGGGACUUGCGUCGUGGCGUGGAGAAGGGACAUGAGGAUCACCCAUGUGGAGU"
quantitative_result = 49.5

[[record]]
seq_string = "UAUAUAUAGUAAGGAUAUGUAUUUAUAUUAUAAACAGAAGGUACUGACAUGAGGAUCACCCAUGUUUUAGUGUGGGCAUGUAGA"
quantitative_result = 114

[[record]]
seq_string = "UAUAUAUAGUAAGGAUAUGUAUAUAUUAUAUAAACAGAAGGUACUGACAUGAGGAUCACCCAUGUUUUAGUGUGGGCAUGUAGA"
quantitative_result = 98.9

[[record]]
seq_string = "AAGAGCGAUUCUCCCUUCCUACAUGAGGAUCACCCAUGUACGAGAAGGCGCCGUGUAUACCACGGUGAGGAUAUCGUACGUUAC"
quantitative_result = 10.3

[[record]]
seq_string = "GAUCCACAUGAGGAUCACCCAUGUGAGGAUAUGAUACUAUGUACUUCGGUACAUAGUAUCAGAAGGCACGGAUC"
quantitative_result = 31.6

